Recorded measurements of pEC50, one per entry
- Target: ligand binding domain of human FXR (Homo sapiens (Human), UniProt Q96RI1)
- Sequence (Q96RI1 262-486): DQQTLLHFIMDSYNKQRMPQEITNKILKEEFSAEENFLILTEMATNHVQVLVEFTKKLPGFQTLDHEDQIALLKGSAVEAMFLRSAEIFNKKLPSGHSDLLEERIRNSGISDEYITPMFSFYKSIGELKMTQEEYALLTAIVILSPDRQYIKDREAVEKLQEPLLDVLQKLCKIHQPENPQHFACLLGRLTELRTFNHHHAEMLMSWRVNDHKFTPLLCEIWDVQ
- Protocol Notes: FXR ligand binding assay (LanthaScreen TR-FRET, SRC2-2 peptide recruitment)
- Condition Context: -log EC50, concentration required to produce 50% activation

Check the records and state pEC50 for `O=C(NS(=O)(=O)C1CC1)c1ccc(N2C[C@@H]3C[C@H]2C[C@H]3OCc2c(C3CCC4(CC3)CC4)noc2C2CC2)c(F)c1` 7.4

Check the records and state pEC50 for `Cc1cccc(Cl)c1-c1noc(C2CC2)c1CO[C@@H]1C[C@@H]2C[C@H]1CN2c1nc2c(C3CCOCC3)cc(C(=O)O)cc2s1` 8.6

Check the records and state pEC50 for CC1(C)CC(S(=O)(=O)NC(=O)c2ccc(N3C(=O)[C@@H]4C[C@H]3C[C@H]4OCc3c(-c4c(Cl)cccc4Cl)noc3C3CC3)cc2F)CCO1 (stereo partly drawn) 8.8

Check the records and state pEC50 for `COC(=O)c1ccc(N2C[C@@H]3C[C@H]2C[C@H]3OCc2c(-c3c(Cl)cccc3Cl)noc2C2CC2)cc1F` 7.4

Check the records and state pEC50 for `C[C@@H]1[C@@H]2C[C@@H](C[C@H]2OCc2c(-c3c(Cl)cccc3Cl)noc2C2CC2)N1c1ccc(C(=O)NS(=O)(=O)C2CCOCC2)nc1` 6.7

Below: the item to evaluate.
Check the records and state pEC50 for `O=C(O)c1cc(C(F)(F)F)c2nc(N3C[C@@H]4C[C@H]3C[C@H]4OC(=O)c3c(-c4c(Cl)cccc4Cl)noc3C3CC3)sc2c1` 7.2

---

- Target: ligand binding domain of human FXR (Homo sapiens (Human), UniProt Q96RI1)
- Protocol Notes: FXR ligand binding assay (LanthaScreen TR-FRET, SRC2-2 peptide recruitment)
- Condition Context: -log EC50, concentration required to produce 50% activation
Recorded measurements of pEC50, one per entry
Simply state the number, no unit and no words.

Here's what some known entries look like.
Check the records and state pEC50 for `CC(C)(C)c1cc(C(=O)O)cc2sc(N3C[C@@H]4C[C@H]3C[C@H]4OCc3c(-c4c(Cl)cccc4Cl)noc3C3CC3)nc12` 7.8

Check the records and state pEC50 for `O=C(O)c1ccc(N2C[C@@H]3C[C@H]2C[C@H]3OCc2c(-c3c(F)cccc3Cl)noc2C2CC2)cc1` 8.6

Below: the item to evaluate.
Check the records and state pEC50 for `O=C(O)c1cc([C@H]2CCOC2)c2nc(N3C[C@@H]4C[C@H]3C[C@H]4OCc3c(C4CCC5(CC4)CC5)noc3C3CC3)sc2c1` 7.3

---

- Target: ligand binding domain of human FXR (Homo sapiens (Human))
- Protocol Notes: FXR ligand binding assay (LanthaScreen TR-FRET, SRC2-2 peptide recruitment)
- Condition Context: extent of activation relative to GW4064; read-out: % Efficacy
Recorded measurements of Emax, one per entry
Form field: result (number plus unit)

Here's what some known entries look like.
State Emax (ligand binding domain of human FXR (Homo sapiens (Human))) of O=C(NCc1nn[nH]n1)c1ccc(N2C[C@@H]3C[C@H]2C[C@H]3OCc2c(-c3c(Cl)cccc3Cl)noc2C2CC2)cc1 [Compound I-164] . 148%

State Emax (ligand binding domain of human FXR (Homo sapiens (Human))) of C[C@H]1[C@H]2C[C@H](C[C@@H]2OCc2c(-c3c(Cl)cccc3Cl)noc2C2CC2)N1c1ccc(C(=O)O)nc1 [Compound I-368] . 22%

State Emax (ligand binding domain of human FXR (Homo sapiens (Human))) of CS(=O)(=O)NC(=O)CCc1ccc(N2C[C@@H]3C[C@H]2C[C@H]3OCc2c(-c3c(Cl)cccc3Cl)noc2C2CC2)c(F)c1 [Compound I-236] . 156%

Continuing:
State Emax (ligand binding domain of human FXR (Homo sapiens (Human))) of O=C(NCCS(=O)(=O)C1CC1)c1ccc(N2C[C@@H]3C[C@H]2C[C@H]3OCc2c(-c3c(Cl)cccc3Cl)noc2C2CC2)cc1F [Compound I-171] . 147%

State Emax (ligand binding domain of human FXR (Homo sapiens (Human))) of O=C(O)CCc1ccc(N2C(=O)[C@@H]3C[C@H]2C[C@H]3OCc2c(-c3c(Cl)cccc3Cl)noc2C2CC2)c(F)c1 [Compound I-304] . 118%

State Emax (ligand binding domain of human FXR (Homo sapiens (Human))) of Cc1cccc(Cl)c1-c1noc(C2CC2)c1CO[C@@H]1C[C@@H]2C[C@H]1C(=O)N2c1ccc(C(=O)O)cc1 [Compound I-309] . 157%

State Emax (ligand binding domain of human FXR (Homo sapiens (Human))) of CCCS(=O)(=O)NC(=O)c1ccc(N2C[C@@H]3C[C@H]2C[C@H]3OCc2c(-c3ccccc3C(F)(F)F)noc2C2CC2)c(F)c1 [Compound I-200] . 215%

State Emax (ligand binding domain of human FXR (Homo sapiens (Human))) of O=C(c1ccc(N2C[C@@H]3C[C@H]2C[C@H]3OCc2c(-c3c(Cl)cccc3Cl)noc2C2CC2)cc1)C(F)(F)F [Compound I-142] . 78%

State Emax (ligand binding domain of human FXR (Homo sapiens (Human))) of O=C(NS(=O)(=O)C1CC1)c1ccc(N2C[C@@H]3C[C@H]2C[C@H]3OCc2c(-c3c(Cl)cccc3Cl)noc2C2(F)CC2)cc1 [Compound I-196] . 154%

State Emax (ligand binding domain of human FXR (Homo sapiens (Human))) of O=C(O)c1ccc(N2C[C@@H]3C[C@H]2C[C@H]3OC(=O)c2c(-c3c(Cl)cccc3Cl)noc2C2(F)CC2)c(F)c1 [Compound I-44] . 152%

State Emax (ligand binding domain of human FXR (Homo sapiens (Human))) of Cc1cccc(Cl)c1-c1noc(C2CC2)c1CO[C@@H]1C[C@@H]2C[C@H]1CN2c1nc2c(C)cc(C(=O)O)cc2s1 [Compound I-269] . 137%
